Test system: physical (tactile) allodynia in spinal nerve ligation model
test.description: Analgesic efficacy experiment using animal model (Chung model, spinal nerve ligation)
Type: in vivo, Sprague-Dawley rats
measurement.parameters: rat, oral, 50 mpk, 1 h; read-out: % reversal (1 h)
Entry class follows inhibition in vivo at 50 mg/kg: class 1: < 20%; class 2: ≥ 20% and < 70%; class 3: ≥ 70%

>>> label_class("O=C(NCC1CCCC(O)C1)c1ccc(C#Cc2ccccc2F)cc1 (stereo not shown)")
"class 1"
>>> label_class("C[C@]1(O)C[C@@H](CNC(=O)c2ccc(C#Cc3ccccc3F)cc2)C1")
"class 3"
>>> label_class("O=C(NCC1CCOC1)c1ccc(C#Cc2ccc(F)cc2)cc1 (stereo not shown)")
"class 3"
>>> label_class("O=C(NCC1COCCO1)c1ccc(C#Cc2ccccc2F)cc1 (stereo not shown)")
"class 1"
>>> label_class("O=C(NCC1CCOCC1)c1ccc(C#Cc2ccc(F)cc2F)cc1")
"class 1"
>>> label_class("CCC1(CNC(=O)c2ccc(C#Cc3ccccc3F)cc2)COC1")
"class 2"
>>> label_class("O=C(NCC1(NC2CC2)CCOCC1)c1ccc(C#Cc2ccccc2F)cc1")
"class 1"
>>> label_class("O=C(NCC1(NC2CC2)CCC1)c1ccc(C#Cc2ccncc2)cc1")
"class 2"

----------
measured.on: human 5-HT2AR (Homo sapiens, UniProt P28223)
Sequence (P28223 whole entry): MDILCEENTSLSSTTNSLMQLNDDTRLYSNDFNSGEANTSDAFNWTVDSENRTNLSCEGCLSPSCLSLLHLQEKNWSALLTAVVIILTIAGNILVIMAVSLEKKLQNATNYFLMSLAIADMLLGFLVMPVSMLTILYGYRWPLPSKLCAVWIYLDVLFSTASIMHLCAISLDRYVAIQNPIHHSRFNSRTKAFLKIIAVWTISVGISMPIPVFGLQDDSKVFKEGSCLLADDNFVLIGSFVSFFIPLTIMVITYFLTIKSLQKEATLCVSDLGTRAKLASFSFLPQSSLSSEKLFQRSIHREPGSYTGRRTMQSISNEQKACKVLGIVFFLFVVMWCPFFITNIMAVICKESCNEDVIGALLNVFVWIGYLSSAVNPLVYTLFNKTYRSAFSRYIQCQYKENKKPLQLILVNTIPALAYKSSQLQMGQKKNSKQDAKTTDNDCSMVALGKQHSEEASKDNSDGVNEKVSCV
test.description: HTRF-based IP1 accumulation assay (5-HT2AR antagonistic effect)
measurement.parameters: HEK293 cells overexpressing human 5-HT2AR; serotonin at EC80
pIC50: −log10 of the molar value.
pIC50 values for the compounds below.
value.kind: pIC50

>>> readout_value("O=C(NCC1CC(F)(F)C1)c1ccc(C#Cc2ccccc2)cc1 [Example 90]")
"6.30 to 7.00"
>>> readout_value("O=C(NC[C@H]1CCOC1)c1ccc(C#Cc2ccccc2F)cc1 [Example 69]")
"6.00 to 6.30"
>>> readout_value("O=C(NCC1(CF)CCOCC1)c1ccc(C#Cc2ccccc2F)cc1 [Example 50]")
"6.00 to 6.30"
>>> readout_value("O=C(NCC1(O)CCC1)c1ccc(C#Cc2ccccc2F)cc1 [Example 57]")
"6.00 to 6.30"
>>> readout_value("CC1(C)CC(CNC(=O)c2ccc(C#Cc3ccccc3F)cc2)CO1 (stereo not drawn) [Example 70]")
"6.00 to 6.30"
>>> readout_value("O=C(NC[C@@H]1CCCOC1)c1ccc(C#Cc2ccccc2F)cc1 [Example 91]")
"5.70 to 6.00"
>>> readout_value("O=C(NCC1CCO1)c1ccc(C#Cc2ccccc2F)cc1 (stereo not drawn) [Example 58]")
"6.30 to 7.00"
>>> readout_value("O=C(NCC1(NC2CC2)CCC1)c1ccc(C#Cc2ccc(F)cn2)cc1 [Example 4]")
"6.30 to 7.00"
>>> readout_value("O=C(CC1(CNC(=O)c2ccc(C#Cc3ccccc3F)cc2)CCCCC1)NO [Example 79]")
"5.70 to 6.00"

----------
measured.on: UniProt:P41594
Sequence (P41594 21-1212): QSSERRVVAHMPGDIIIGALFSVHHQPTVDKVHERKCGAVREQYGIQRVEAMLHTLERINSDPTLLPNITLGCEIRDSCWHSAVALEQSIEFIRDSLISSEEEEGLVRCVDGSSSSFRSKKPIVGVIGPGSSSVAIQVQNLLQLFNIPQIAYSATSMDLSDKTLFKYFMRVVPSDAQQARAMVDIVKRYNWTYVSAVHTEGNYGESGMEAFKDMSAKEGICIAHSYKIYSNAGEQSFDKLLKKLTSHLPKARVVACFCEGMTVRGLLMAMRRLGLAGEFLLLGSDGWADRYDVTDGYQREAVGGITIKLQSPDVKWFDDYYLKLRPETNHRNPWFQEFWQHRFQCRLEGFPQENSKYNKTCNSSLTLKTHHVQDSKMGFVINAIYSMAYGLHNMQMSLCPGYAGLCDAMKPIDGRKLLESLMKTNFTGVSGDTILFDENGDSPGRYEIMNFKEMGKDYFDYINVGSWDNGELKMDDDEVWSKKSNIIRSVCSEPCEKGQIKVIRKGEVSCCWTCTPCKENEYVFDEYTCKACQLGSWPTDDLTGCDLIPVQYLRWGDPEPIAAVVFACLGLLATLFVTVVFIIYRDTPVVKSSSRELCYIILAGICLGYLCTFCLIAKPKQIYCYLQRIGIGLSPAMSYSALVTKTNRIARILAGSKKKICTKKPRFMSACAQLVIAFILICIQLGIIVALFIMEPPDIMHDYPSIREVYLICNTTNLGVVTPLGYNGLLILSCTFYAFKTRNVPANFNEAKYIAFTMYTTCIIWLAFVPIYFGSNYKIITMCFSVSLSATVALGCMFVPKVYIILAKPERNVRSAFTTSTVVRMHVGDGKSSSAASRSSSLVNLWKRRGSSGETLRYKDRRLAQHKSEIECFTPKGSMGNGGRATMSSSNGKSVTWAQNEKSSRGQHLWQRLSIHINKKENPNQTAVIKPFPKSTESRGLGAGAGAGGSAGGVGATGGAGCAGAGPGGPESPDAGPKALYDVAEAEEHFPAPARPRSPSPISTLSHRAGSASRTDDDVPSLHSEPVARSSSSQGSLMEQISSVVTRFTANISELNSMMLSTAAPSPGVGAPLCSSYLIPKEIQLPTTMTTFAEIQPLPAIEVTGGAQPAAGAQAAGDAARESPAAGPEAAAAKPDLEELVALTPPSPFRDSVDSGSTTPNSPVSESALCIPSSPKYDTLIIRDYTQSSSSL
test.description: Fluorescence-based Ca2+ mobilization assay
measurement.parameters: HEK293 cells overexpressing mGluR5; L-glutamate at EC80
pIC50: −log10 of the molar value.
value.kind: pIC50

>>> readout_value("O=C(NCC1(N2CCOCC2)CCC1)c1ccc(C#Cc2ccccc2F)cc1 [Example 96]")
"5.70 to 6.00"
>>> readout_value("O=C(NCC1CCCCO1)c1ccc(C#Cc2ccccc2F)cc1 (stereo not shown) [Example 54]")
"> 7.00"
>>> readout_value("O=C(NCC1CCCOC1)c1ccc(C#Cc2ccccc2F)cc1 (stereo not shown) [Example 40]")
"> 7.00"
>>> readout_value("O=C(NCC1(CO)CCCCC1)c1ccc(C#Cc2ccccc2F)cc1 [Example 37]")
"> 7.00"
>>> readout_value("O=C(CC1(CNC(=O)c2ccc(C#Cc3ccccc3F)cc2)CCCCC1)NO [Example 79]")
"6.30 to 7.00"
>>> readout_value("CC1(CNC(=O)c2ccc(C#Cc3ccccc3F)cc2)CC(F)(F)C1 [Example 97]")
"> 7.00"
>>> readout_value("O=C(NCC1CCOCC1)c1ccc(C#Cc2ccccc2F)cc1 [Example 27]")
"> 7.00"
>>> readout_value("O=C(NCC1(O)CCCCC1)c1ccc(C#Cc2ccccc2F)cc1 [Example 32]")
"> 7.00"
>>> readout_value("O=C(NCC1CCCCO1)c1ccc(C#Cc2ccc(F)cc2F)cc1 (stereo not shown) [Example 115]")
"6.30 to 7.00"
>>> readout_value("CC1(CNC(=O)c2ccc(C#Cc3ccc(F)cc3F)cc2)CCCC1 [Example 108]")
"> 7.00"
>>> readout_value("CC1(C)CC(CNC(=O)c2ccc(C#Cc3ccccc3F)cc2)CO1 (stereo not shown) [Example 70]")
"6.30 to 7.00"
>>> readout_value("[2H]C([2H])(NC(=O)c1ccc(C#Cc2ccccc2F)cc1)C1CCOCC1 [Example 68]")
"6.30 to 7.00"
>>> readout_value("O=C(NCC1(CCCO)CCCCC1)c1ccc(C#Cc2ccccc2F)cc1 [Example 62]")
"6.30 to 7.00"
>>> readout_value("O=C(NCC1CCC(F)(F)CC1)c1ccc(C#Cc2ccccc2F)cc1 [Example 39]")
"> 7.00"
>>> readout_value("CC(C)NC1(CNC(=O)c2ccc(C#Cc3ccccc3F)cc2)CCCCC1 [Example 25]")
"6.30 to 7.00"
>>> readout_value("O=C(NCC1(NC2CC2)CCC1)c1ccc(C#Cc2ccccc2F)cc1 [Example 9]")
"6.30 to 7.00"
>>> readout_value("C[C@]1(O)C[C@@H](CNC(=O)c2ccc(C#Cc3ccccc3F)cc2)C1 [Example 87]")
"> 7.00"
>>> readout_value("O=C(NCC1CCCC(O)C1)c1ccc(C#Cc2ccccc2F)cc1 (stereo not shown) [Example 64]")
"> 7.00"
>>> readout_value("O=C(NCC1CCOCC1)c1ccc(C#Cc2ccccc2F)cc1F [Example 35]")
"> 7.00"
